Reported Ki for target or system Cannabinoid receptor 1 (Homo sapiens), by entry.

compound	target	Ki
CCOC(=O)N1CCN(C(=O)c2cc(-c3ccccc3Cl)nn2-c2ccc(C)cc2C)CC1	Cannabinoid receptor 1 (Homo sapiens)	287 nM
Cc1ccc(C2c3cccn3-c3ccccc3N2C(=O)CN(C(=O)C2CCCC2)C2CC2)cc1 (stereo unspecified)	Cannabinoid receptor 1 (Homo sapiens)	520 nM
Cc1cc(C)c(OCC(=O)Nc2sc3c(c2C(=O)NC2CCS(=O)(=O)C2)CCCC3)c(C)c1 (stereo unspecified)	Cannabinoid receptor 1 (Homo sapiens)	325 nM
CC(C)N(CC(=O)N1c2ccccc2-n2cccc2C1c1ccc(F)cc1)C(=O)CC(C)(C)C (stereo unspecified)	Cannabinoid receptor 1 (Homo sapiens)	1030 nM
CCCNC(=O)N1CCN(c2nc(Cc3ccccc3)c3c(c2C#N)CC(C)(C)OC3)CC1	Cannabinoid receptor 1 (Homo sapiens)	3950 nM
CC(C)CN(CC(=O)N1CCc2sccc2C1c1ccc(F)cc1)C(=O)c1ccco1 (stereo unspecified)	Cannabinoid receptor 1 (Homo sapiens)	875 nM

* * *

We begin with a simple list: items and their reported Ratio Ki.
Organism: Homo sapiens
test protocol: Selectivity ratio of Ki for human CB2 receptor to Ki for human CB1 receptor

molecule	Ratio Ki
O=C(Nc1ccccc1Oc1ccccc1)c1ccc(S(=O)(=O)N2CCc3ccccc32)cc1	> 39
Cc1ccc(C2c3cccn3-c3ccccc3N2C(=O)CN(C(=O)C2CCCC2)C2CC2)cc1 (stereo not drawn)	> 19.2
CC1CC(C)CN(S(=O)(=O)c2ccc(F)c(C(=O)NC(c3ccccc3)c3ccccc3)c2)C1 (stereo not drawn)	> 16.4

* * *

target: UniProt:P21554
test protocol: Inverse agonist activity at human CB1 receptor by [35S]GTPgammaS incorporation assay relative to rimonabant
Format: functional
Design: concentration or dose not given beside the values
Below, each of the compounds is paired with its reported Activity value.
metric name: Activity (%)

compound	target	result number
CC(C)N(CC(=O)N1c2ccccc2-n2cccc2C1c1ccc(F)cc1)C(=O)CC(C)(C)C (centres undefined)	UniProt:P21554	77
COc1cccc(N2C(C(C)=O)=NN(c3ccc(Cl)cc3)C2c2ccc(N3CCOCC3)cc2)c1 (centres undefined)	UniProt:P21554	81
CCN(Cc1ccccc1)C(=O)c1oc2ccc(S(=O)(=O)N3CC(C)CC(C)C3)cc2c1C (centres undefined)	UniProt:P21554	95
CC(C)CN(CC(=O)N1CCc2sccc2C1c1ccc(F)cc1)C(=O)c1ccco1 (centres undefined)	UniProt:P21554	105

* * *

target: UniProtKB P21554
test protocol: Displacement of [3H]rimonabant from human CB1 receptor expressed in HEK293 cells assessed as signal point inhibition at 10 uM by liquid scintillation counting
Type: cell-based

compound	inhibition / %
Cc1ccc(C(=O)n2cc(/C=N/Nc3nc(N4CCOCC4)nc(N4CCOCC4)n3)c3ccccc32)cc1	85
COc1ccc(C2c3cccn3-c3ccccc3N2C(=O)CN(C(=O)NC(C)(C)C)C(C)C)cc1 (stereo not given)	95
Cc1cc(-c2ccccc2)n(Cc2ccccc2)c(=O)c1S(=O)(=O)c1ccccc1	73
CC1CC(C)CN(S(=O)(=O)c2ccc(F)c(C(=O)NC(c3ccccc3)c3ccccc3)c2)C1 (stereo not given)	77
CCOC(=O)N1CCN(C(=O)c2cc(-c3ccccc3Cl)nn2-c2ccc(C)cc2C)CC1	98
Cc1ccc(Cc2nsc(N3CCCN(C(=O)Nc4c(C(C)C)cccc4C(C)C)CC3)n2)cc1	77
CC(C(=O)N1c2ccccc2C(C)(c2ccc(Cl)cc2)CC1(C)C)N1C(=O)C2CCCCC2C1=O (stereo not given)	73
CCOC(=O)CN1C(c2ccc(F)cc2)Nc2ccc(Br)cc2C1c1ccccc1 (stereo not given)	77
COc1cccc(N2C(C(C)=O)=NN(c3ccc(Cl)cc3)C2c2ccc(N3CCOCC3)cc2)c1 (stereo not given)	90
Cc1cccc(C)c1N(C(=O)c1ccccc1Cl)C(=O)C(c1ccc([N+](=O)[O-])cc1)N1CCOCC1 (stereo not given)	79

Entry source: ChEMBL document CHEMBL1152367
